target: ΔF508-CFTR (Homo sapiens, UniProt P13569, DEL508-508)
Construct: host or cells: CFBE41o-, doxycycline-inducible
Sequence (P13569 with tags, fused parts or gaps DEL508-508): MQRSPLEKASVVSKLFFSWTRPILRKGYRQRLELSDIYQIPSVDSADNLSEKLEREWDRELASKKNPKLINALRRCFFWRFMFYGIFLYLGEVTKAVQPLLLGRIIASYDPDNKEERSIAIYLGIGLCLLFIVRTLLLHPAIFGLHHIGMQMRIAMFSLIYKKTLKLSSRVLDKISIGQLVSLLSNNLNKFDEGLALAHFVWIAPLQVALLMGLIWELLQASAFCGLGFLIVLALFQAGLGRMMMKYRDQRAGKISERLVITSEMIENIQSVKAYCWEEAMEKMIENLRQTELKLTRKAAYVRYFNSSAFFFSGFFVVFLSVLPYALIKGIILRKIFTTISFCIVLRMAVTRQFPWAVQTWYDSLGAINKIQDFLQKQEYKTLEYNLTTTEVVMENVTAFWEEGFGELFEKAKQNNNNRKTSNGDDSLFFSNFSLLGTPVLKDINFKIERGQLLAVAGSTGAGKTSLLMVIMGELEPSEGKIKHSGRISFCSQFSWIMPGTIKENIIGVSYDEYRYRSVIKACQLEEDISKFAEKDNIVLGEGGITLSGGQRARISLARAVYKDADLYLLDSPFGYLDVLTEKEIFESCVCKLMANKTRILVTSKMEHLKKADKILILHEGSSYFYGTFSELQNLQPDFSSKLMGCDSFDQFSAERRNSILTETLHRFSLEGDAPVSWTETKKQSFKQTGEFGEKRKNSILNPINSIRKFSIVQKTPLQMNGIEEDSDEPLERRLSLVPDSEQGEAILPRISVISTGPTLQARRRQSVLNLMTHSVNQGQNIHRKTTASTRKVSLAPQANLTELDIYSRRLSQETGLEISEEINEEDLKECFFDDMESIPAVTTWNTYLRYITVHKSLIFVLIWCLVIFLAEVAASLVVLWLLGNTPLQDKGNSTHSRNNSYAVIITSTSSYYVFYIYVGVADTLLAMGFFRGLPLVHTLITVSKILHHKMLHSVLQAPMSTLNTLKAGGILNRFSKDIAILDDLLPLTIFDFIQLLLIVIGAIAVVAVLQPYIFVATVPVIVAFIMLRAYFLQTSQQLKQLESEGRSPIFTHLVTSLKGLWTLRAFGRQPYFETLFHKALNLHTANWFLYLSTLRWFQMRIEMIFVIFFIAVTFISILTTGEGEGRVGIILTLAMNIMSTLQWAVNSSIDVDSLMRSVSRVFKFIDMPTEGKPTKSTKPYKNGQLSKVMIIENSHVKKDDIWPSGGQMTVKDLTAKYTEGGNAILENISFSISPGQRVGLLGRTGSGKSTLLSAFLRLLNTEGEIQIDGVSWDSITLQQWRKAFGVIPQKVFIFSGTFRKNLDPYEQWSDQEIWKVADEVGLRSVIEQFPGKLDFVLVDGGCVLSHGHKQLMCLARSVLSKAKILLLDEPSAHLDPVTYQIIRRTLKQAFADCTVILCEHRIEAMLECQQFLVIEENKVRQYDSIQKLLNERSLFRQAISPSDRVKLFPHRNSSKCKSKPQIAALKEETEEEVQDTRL
test: CFTR cell surface levels using HRP-tagged ΔF508-CFTR expressing CFBE cells, intrinsic corrector capacity
Type: cell-based
Parameters: concentration or dose not given beside the values
recorded.conditions: HRP-tagged ΔF508-CFTR expressing CFBE41o- cells; compound alone (intrinsic corrector capacity); 20 hours at 33° C.
readout: % Activation (%)
Kindly answer with a numeric value in %, unit omitted.

{"columns": ["compound", "% Activation / %"],
 "data": [
  ["CCS(=O)(=O)NC(=O)c1cc(N2CCN(c3ccncc3)CC2)c2c(C3CCC3)nn(C3CCCCC3)c2n1 [Compound 470]", 275.4],
  ["COC1CCN(c2cc(C(=O)NS(=O)(=O)C3CCS(=O)(=O)C3)nc3c2c(C2CCC2)nn3-c2ccccc2)CC1 (stereo not drawn) [Compound 143]", 107.15],
  ["CN(C)S(=O)(=O)NC(=O)c1cc(N2CCC(N3CCOC(C#N)C3)CC2)c2c(C3CCC3)nn(-c3ccc(F)cc3)c2n1 (stereo not drawn) [Compound 527]", 295.95],
  ["COCCN(CCOC)c1ccc(-c2cc(C(=O)NS(C)(=O)=O)nc3c2c(C(C)C)nn3-c2ccnc(N3CCOCC3)c2)cn1 [Compound 252]", 115.2],
  ["CCOC(=O)N1CCC(NS(=O)(=O)NC(=O)c2cc(N3CCC(COC)CC3)c3c(C4CCC4)nn(-c4ccc(F)cc4)c3n2)CC1 [Compound 673]", 423.5]
]}

Moving on to another compound below.
Q. Report % Activation from ΔF508-CFTR (Homo sapiens, UniProt P13569, DEL508-508) testing of CN1CCN(S(=O)(=O)NC(=O)c2cc(N3CCC(CN4CCCC4)CC3)c3c(C4CCC4)nn(-c4ccccc4)c3n2)CC1 [Compound 460]
A. 125.8

* * *

target: ΔF508-CFTR (Homo sapiens, UniProt P13569, DEL508-508)
Construct: host or cells: CFBE41o-, doxycycline-inducible
test: CFTR cell surface levels using HRP-tagged ΔF508-CFTR expressing CFBE cells, in the presence of a co-corrector
Assay type: cell-based
recorded.conditions: HRP-tagged ΔF508-CFTR CFBE cells, in the presence of 3 μM co-corrector
readout: % Activation (%)
Kindly answer with a numeric value in %, unit omitted.

Q. Report % Activation from ΔF508-CFTR (Homo sapiens, UniProt P13569, DEL508-508) testing of C[C@H](C1CCN(c2cc(C(=O)NS(=O)(=O)N(C)C)nc3c2c(C2CCC2)nn3-c2ccc(F)cc2)CC1)N1CCOCC1 (single isomer, unassigned)
A. 524.1

Q. Report % Activation from ΔF508-CFTR (Homo sapiens, UniProt P13569, DEL508-508) testing of CC(C)c1nn(C2CCCCC2)c2nc(C(=O)NS(C)(=O)=O)cc(-c3ccc(N4CCC(C#N)CC4)cc3)c12
A. 457.5

Q. Report % Activation from ΔF508-CFTR (Homo sapiens, UniProt P13569, DEL508-508) testing of CC(C)Oc1nn(C2CCCCC2)c2nc(C(=O)NS(C)(=O)=O)cc(-c3ccc(CN4CCN(C)CC4)cc3)c12
A. 393.27

Q. Report % Activation from ΔF508-CFTR (Homo sapiens, UniProt P13569, DEL508-508) testing of COCC1CCN(c2cc(C(=O)N(C)S(C)(=O)=O)nc3c2c(C2CCC2)nn3-c2ccccc2)CC1
A. 270.75
